Values compiled from ChEMBL document CHEMBL4888484.

# % Inhibition values compiled below
System: Plasmodium falciparum
test_name: Confirmatory screen in NF54 pLDH assay, in single point, at 2uM, 72h
Format: functional, Erythrocyte
setup_conditions: timepoint 72 hour
In all, about 4,800 compounds went through this assay and about 410 (8.5%) showed an effect of 50% or more. The entries come from a sample that favours strong results as a whole.

molecule: CCCN(CC(=O)N(Cc1ccccc1)Cc1ccc(C)o1)C(=O)c1ccco1
% Inhibition (%): -5
//
molecule: Cc1ccc(Oc2cc(C#N)c(C#N)cc2N2CCOCC2)cc1C
% Inhibition (%): -9
//
molecule: Cn1cc(-c2ccc(F)cc2)c2nc[nH]c(=O)c21
% Inhibition (%): 10
//
molecule: CCn1cc(Cl)c(C(=O)N2N=C3/C(=C/c4ccc5c(c4)OCO5)CCCC3C2c2ccc3c(c2)OCO3)n1 (stereo not drawn)
% Inhibition (%): 8
//
molecule: CCO[C@@]1(c2ccccc2)NC(=O)c2cc3c(cc21)OCCO3
% Inhibition (%): -18
//
molecule: CCN(CC)c1ccc(C(=O)Nc2ccc3nc(N4CCCC4)cc(C)c3c2)cc1
% Inhibition (%): 93
//
molecule: CCOC(=O)c1oc(NC(=O)OC(C)(C)C)nc1C(F)(F)F
% Inhibition (%): 5
//
molecule: Cc1ccc(NC(=O)c2c(Cl)cccc2Cl)c2c1CC(C)(C)O2
% Inhibition (%): -21
//
molecule: COc1ccc(NC(=O)CCC(=O)NCc2ccco2)cc1
% Inhibition (%): 15
//
molecule: Cc1cc(C)cc(NC(=O)Cc2nnc3ccc(C(=O)Nc4ccccc4)cn23)c1
% Inhibition (%): 8
//
molecule: c1ccc(-c2noc(-c3ccc(NC4CCCCC4)nn3)n2)cc1
% Inhibition (%): 60
//
molecule: COc1ccc2nc(O)c(C(=O)Nc3ccc4c(c3F)CCNC4)cc2c1
% Inhibition (%): 101
//
molecule: COc1cccc(CNC(=O)Cn2c(=O)n(C)c(=O)c3c2c(-c2ccccc2)cn3C)c1OC
% Inhibition (%): -10
//
molecule: COc1ccc(NC(=O)CN2N=C(C(=O)Nc3ccc(F)cc3)CCC2=O)cc1
% Inhibition (%): -1
//
molecule: COC(=O)C1(NC(=O)c2scnc2C)CCCCC1
% Inhibition (%): -5
//
molecule: Clc1ccc(COc2ccc(CNC3CCCCC3)cc2Br)cc1
% Inhibition (%): -12
//
molecule: CCC(C#N)(CC)c1nc(-c2cc(N)nc3ccccc23)no1
% Inhibition (%): 8
//
molecule: CCn1cc(C(=O)Nc2ccc(C(=O)N3CCCCC3)cc2)cn1
% Inhibition (%): 5
//
molecule: CC(C)(C)C1CC(NC(=O)C2CC=CC2)CCO1 (stereo not drawn)
% Inhibition (%): -1
//
molecule: Cc1ccc2nc(-c3cc4ccccc4o3)cn2c1
% Inhibition (%): 52
//
molecule: O=S(=O)(c1cccc(F)c1)c1cnc2c(F)cccc2c1-c1cccc(F)c1
% Inhibition (%): -3
//
molecule: O=C(CN1N=C(C(=O)Nc2ccccc2)CCC1=O)Nc1ccc(OC(F)(F)F)cc1
% Inhibition (%): -8
//
molecule: COc1ccc(CN2CC(C)OC3(CCOC3)C2)cc1Cl (stereo not drawn)
% Inhibition (%): 6
//
molecule: O=C(CN1CCOCC1)Nc1ccc(N2CCOCC2)c(F)c1
% Inhibition (%): -8
//
molecule: O=C(NCc1cccc(C(F)(F)F)c1)c1csc(C(=O)NC2CCCC2)n1
% Inhibition (%): -3
//
molecule: C=CCNC(=O)CCC(=O)NCc1ccco1
% Inhibition (%): 13
//
molecule: Cc1cc(C)c(C(=O)Cn2nc3ccc(-c4ccc(Cl)cc4)nn3c2=O)c(C)c1
% Inhibition (%): 10
//
molecule: CC[C@H](O)CN1CCC(Nc2ncnc3cc(Cl)ccc23)CC1
% Inhibition (%): 75

###

Tested on: Plasmodium falciparum
test_name: Confirmatory screen in NF54 pLDH assay, in single point, at 2uM, 72h
Type: functional, Erythrocyte
setup_conditions: timepoint 72 hour
Among all 4,800 compounds or so, about 410 (8.5%) showed an effect of 50% or more. The sample as a whole holds a higher share of strong results than the screen did.
measured_quantity: % Inhibition (%)

compound: Cn1c(=O)c2c(ncn2CC(=O)N(Cc2ccccc2)C2CC2)n(C)c1=O
value_observed: 2

compound: CCc1c[nH]c(CNC(=O)C2(C(=O)NC3CC3)CCC2)n1
value_observed: 7

compound: CCOc1ccc(NC(=O)c2cn3nc(-c4ccc(OCC)cc4)cc3nc2C2CCN(C(=O)OC(C)(C)C)CC2)cc1
value_observed: 16

compound: Clc1ccc(COc2ccc(Cl)cc2CNCCCn2ccnc2)c(Cl)c1
value_observed: 100

compound: CN1CCN(C(=O)CNC(=O)c2cccc(Cl)c2)CC1
value_observed: 8

compound: CC(=O)C1(C(C)=O)[C@H](c2ccc(F)cc2)C1(C#N)C#N
value_observed: -24

compound: CNc1nc(N2C[C@H](C)[C@@](O)(C3CC3)C2)nc2c1CCC2
value_observed: 1

compound: CC1=NN(S(=O)(=O)c2ccc(F)cc2)C(=O)c2ccccc2O1
value_observed: 5

compound: O=C(NCCN1CCCC1)c1ccc2c(c1)OCCO2
value_observed: -7

compound: O=c1ccn2c(n1)O[C@H]1[C@H](OC3CCCCO3)[C@@H](COC3CCCCO3)O[C@H]12 (some centres not stated)
value_observed: -17

compound: CCOc1cc(CNCCCn2ccnc2)ccc1OCc1ccccc1
value_observed: 23

compound: N#Cc1nc2c(C#N)c(N)n(CCc3ccccc3)c2nc1C#N
value_observed: 92

compound: Nc1nc2c(s1)CN(CCc1ccccc1)CC2
value_observed: 41

compound: Cc1ccc(COc2cccc(CNC3CC3)c2)cc1
value_observed: -1

compound: CN([C@H]1CCc2nn(CC3CC3)c(=O)n2CC1)S(=O)(=O)c1ccccc1C(F)(F)F
value_observed: 1

compound: O=C(CCNC(=O)C1CC1c1c(F)cccc1Cl)NC1CCS(=O)(=O)C1 (configuration not stated)
value_observed: -19

compound: CCOc1c(CNC(C)(C)CC(C)(C)C)cccc1OC
value_observed: 5

###

Tested on: Plasmodium falciparum
test_name: Confirmatory screen in NF54 pLDH assay, in single point, at 2uM, 72h
Type: functional, Erythrocyte
setup_conditions: timepoint 72 hour
Out of some 4,800 compounds screened, about 410 (8.5%) showed an effect of 50% or more. The full list was thinned out, with strong results kept by preference.
# % Inhibition values compiled below

molecule: CC(C)(C)[C@H]1CCc2c(sc(NC(=O)C3(F)C(F)(F)C(F)(F)C(F)(F)C(F)(F)C3(F)F)c2C#N)C1
% Inhibition, %: 51

molecule: O=S(=O)(NCc1ccc(C(F)(F)F)nc1N1CCC(C(F)(F)F)CC1)C(F)(F)F
% Inhibition, %: 8

molecule: COc1ccc(F)cc1S(=O)(=O)N1CCc2noc(N)c2C1
% Inhibition, %: 63

molecule: CC(O)CC(C)(C)CNC1CCCc2occc21 (stereo not given)
% Inhibition, %: -9

molecule: NC(=O)C(NC(=O)c1cccc(Cl)c1)C(N)=O
% Inhibition, %: 85

molecule: Cc1nn(C)c(C)c1CCCN[C@@H](C)c1cccc(O)c1
% Inhibition, %: 4

molecule: Cc1ccc(-n2nc(C)cc2NC(=O)CN2CCCN(c3ccc(C(F)(F)F)cn3)CC2)cc1
% Inhibition, %: 9

molecule: COc1ccc(CCc2nc(NC(=O)c3[nH]nc4c3CCC4)n[nH]2)cc1
% Inhibition, %: -15

molecule: CCn1ccc([C@H](C)NC(=O)c2cc(-c3ccc(OC)cc3)nc3c2c(C)nn3C)n1
% Inhibition, %: 12

molecule: CNC(=O)CNC(=O)c1cccc(Cl)c1
% Inhibition, %: 12

molecule: Cc1cccc(CN2CCC[C@H](C(=O)c3ccc4c5c(cccc35)CC4)C2)n1
% Inhibition, %: 67

molecule: Oc1csc(Cc2nc(C(F)(F)F)cs2)n1
% Inhibition, %: -4

molecule: Cn1nccc1/C=C1\CC2C3CCc4cc(O)ccc4C3CCC2(C)C1O (stereo not given)
% Inhibition, %: 47

molecule: COc1cc(C(=O)Nc2nnc(-c3ccc(C)s3)[nH]2)on1
% Inhibition, %: 9

molecule: O=C(C[C@H]1CCN(S(=O)(=O)c2ccc(F)cc2F)C1)NCc1ccccc1
% Inhibition, %: 10

molecule: COc1ccc(Nc2ncc(Cc3ccccc3C)s2)cc1
% Inhibition, %: 4

molecule: CC(C)(C)NC(=O)CNc1nnc(C2CC2)s1
% Inhibition, %: 12

molecule: Cc1ccc(N2CCN(S(=O)(=O)c3ccccc3)[C@@H](C)C2=O)cc1F
% Inhibition, %: -11

molecule: COc1ccc(S(=O)(=O)N2CCC(c3cc(N)on3)CC2)cc1Cl
% Inhibition, %: 40

molecule: Cc1nn(C)c(Cl)c1CNCc1ccc(N2CCCCC2)nc1
% Inhibition, %: -13

molecule: O=C(c1cccc2cc[nH]c12)N(CC1CC1)C1CC1
% Inhibition, %: 12

molecule: Fc1ccc(COc2cccc(CNCCN3CCOCC3)c2)cc1
% Inhibition, %: -3

molecule: COC(=O)[C@](Nc1ccc(Oc2ccccc2)cc1)(c1cc(C)c(O)c(C)c1)C(F)(F)F
% Inhibition, %: 7

molecule: Cc1ccccc1C(=O)Cc1ncc[nH]1
% Inhibition, %: 53

molecule: O=C1[C@H](c2cccnc2)N(CCCc2ccccc2)C(=O)CN1c1ccccc1
% Inhibition, %: -15

molecule: CC(=O)N(Cc1ccccc1)c1ccc2c(c1)nc(Cn1nc(C)cc1C)n2C
% Inhibition, %: 5

molecule: COc1ccc(OC)c(S(=O)(=O)N2C[C@H]3CCCC(=O)N[C@H]3C2)c1
% Inhibition, %: 9

molecule: O=S(=O)(c1ccccc1)N1CCN(S(=O)(=O)c2ccc(Cl)cc2)C1
% Inhibition, %: 11

molecule: CC(=O)N(CCN1CCOCC1)[C@H]1CCN(S(=O)(=O)c2cccc(Cl)c2)C1
% Inhibition, %: 9

molecule: O=c1[nH]c(=O)n(S(=O)(=O)c2ccccc2)cc1F
% Inhibition, %: 87

molecule: CC1=CC(=[N+](CCO)CCO)C=C/C1=C(\c1ccc(N(CCO)CCO)cc1C)c1ccccc1Cl
% Inhibition, %: 87

molecule: CCC(CC)(NCC(=O)NC1CC1)c1ccc(Cl)cc1
% Inhibition, %: -1

molecule: Cc1ccccc1CNC(=O)[C@H]1CCCN(c2nc3cccnc3n(Cc3ccccc3)c2=O)C1
% Inhibition, %: -6

molecule: O=C(Nc1ccn(-c2ccccc2)n1)N1CC2CCC(O)CC2C1 (stereo not given)
% Inhibition, %: -3

molecule: O=C(N[C@H]1CCCc2occc21)c1ccco1
% Inhibition, %: 7

molecule: Cc1cccc(C)c1OCC(C)NC(=O)N1CCCC(CS(C)(=O)=O)C1 (stereo not given)
% Inhibition, %: -20

molecule: O=C(Cc1ccccc1)Nc1c2c(nc3c1CCC3)CCCC2
% Inhibition, %: 8

molecule: O=C(N[C@@H](N1CCCCCC1)C(Cl)(Cl)Cl)c1cccc(Cl)c1
% Inhibition, %: -20

molecule: CC(C)(C)NC(=O)c1ncc(Br)cc1Br
% Inhibition, %: 5

molecule: Cc1cccc(NC(=O)N2CCCCCC2)n1
% Inhibition, %: 6
